Test system: Klebsiella pneumoniae
procedure details: Antibacterial activity against Klebsiella pneumoniae isolate C3 after 16 hrs by broth microdilution assay
test parameters: in vivo
In this section we review reported MIC values for a set of compounds.
assay readout: MIC

- entry smiles: "Cl.Nc1nccc(-c2c[nH]c3cc(F)ccc23)n1"
  observed: "> 200 µM"
- entry smiles: "CC(C)Cn1cc(-c2ccnc(N)n2)c2ccc(Br)cc21.Cl"
  observed: "> 200 µM"
- entry smiles: "CCn1cc(-c2ccnc(N)n2)c2ccc(Br)cc21.Cl"
  observed: "> 200 µM"
- entry smiles: "CNc1nccc(-c2c[nH]c3ccc(Br)cc23)n1.Cl"
  observed: "> 200 µM"
- entry smiles: "CCCCCn1cc(-c2ccnc(N)n2)c2cc(Br)ccc21.Cl"
  observed: "> 200 µM"
- entry smiles: "CN(C)c1nccc(-c2c[nH]c3ccc(Br)cc23)n1.Cl"
  observed: "> 200 µM"
- entry smiles: "CCNc1nccc(-c2c[nH]c3ccc(Br)cc23)n1.Cl"
  observed: "> 200 µM"
- entry smiles: "Cl.Nc1nccc(-c2c[nH]c3ccc(Cl)cc23)n1"
  observed: "> 200 µM"
- entry smiles: "Cl.Nc1nccc(-c2cn(Cc3ccccc3)c3ccc(Br)cc23)n1"
  observed: "> 200 µM"
- entry smiles: "Brc1ccc2[nH]cc(-c3ccnc(NCc4ccccc4)n3)c2c1.Cl"
  observed: "> 200 µM"
- entry smiles: "CCCCn1cc(-c2ccnc(N)n2)c2cc(Br)ccc21.Cl"
  observed: "> 200 µM"
- entry smiles: "CC(C)Cn1cc(-c2ccnc(N)n2)c2cc(Br)ccc21.Cl"
  observed: "> 200 µM"
